# target_of_assay: Caspase-3 (Homo sapiens, UniProt P42574)
# Sequence (P42574 29-175 limits assumed): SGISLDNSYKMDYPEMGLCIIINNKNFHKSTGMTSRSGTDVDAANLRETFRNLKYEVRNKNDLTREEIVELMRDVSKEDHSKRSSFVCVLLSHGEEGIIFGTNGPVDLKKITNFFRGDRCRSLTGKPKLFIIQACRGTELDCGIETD
# Sequence (P42574 176-277 limits assumed): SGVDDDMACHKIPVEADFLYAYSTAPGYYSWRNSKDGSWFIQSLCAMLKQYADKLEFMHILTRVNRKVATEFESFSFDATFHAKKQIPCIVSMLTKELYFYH
# experiment_description: Inhibition of recombinant human caspase-3
Assign labels as follows, please: satisfied for IC50 below 1 µM; not satisfied for IC50 equal to or exceeding 1 µM.

{"molecule": "CN1C(=O)C(=O)c2cc(C(=O)O)ccc21", "discrete_label": "not satisfied"}

Report whether reported IC50 is lower than 1 µM (strictly) for COC[C@H]1CCCN1S(=O)(=O)c1ccc2c(c1)C(=O)C(=O)N2
not satisfied

Threshold test, IC50 < 1 µM: O=C1Nc2ccc(S(=O)(=O)N3CCC[C@H]3COc3ccccc3)cc2C1=O
satisfied

Consider O=C1C(=O)N(Cc2ccccc2)c2ccc([N+](=O)[O-])cc21 . Does its IC50 lie strictly below 1 µM?
satisfied

Does the reported IC50 of CN(CC1CCCN1S(=O)(=O)c1ccc2c(c1)C(=O)C(=O)N2)c1ccccc1 (configuration not stated) stay below 1 µM?
not satisfied

# strict comparison: is reported IC50 < 1 µM? input = CN1C(=O)C(=O)c2ccccc21
not satisfied

Where these numbers come from: ChEMBL document CHEMBL1134769
